Experiment: NCI Yeast Anticancer Drug Screen. Data for the cln2 rad14 strain (AID 165);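 note: 0% = growth equal to vehicle treated cultures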
Conditions: S. cerevisiae cln2 rad14 strain, at 50.0 µM, hits give high values
Method: Growth inhibition of yeast strains with defined genetic alterations is measured as a screen for potential anti-cancer activity. Selected strains with alterations in DNA damage repair or cell cycle control were exposed to compounds and growth inhibition was measured relative to vehicle treated controls. The strain used in this assay is cln2 rad14
Compounds without any hit were thinned out: in the full panel of roughly 79,000, 15% have a hit.
Entries and their growth inhibition values follow.
MEASUREMENT TYPE: growth inhibition (%)

INSERT INTO assay_data (molecule, unit_spec, measured_value) VALUES
  ('COc1nc(NC2OC(CO)C(O)C(O)C2O)c(C(C)=O)c(=O)n1C (stereo not given)', '%', 15.2),
  ('O=C(Cc1ccccc1)Nc1cccc2ccccc12', '%', 1),
  ('O=C(Nc1cccc(Cl)c1)c1cc2cc(N=Nc3ccc(Br)cc3)ccc2oc1=O', '%', 29.1),
  ('O=C(O)C(Cc1ccc(O)cc1)NC(=O)C(CSC(c1ccccc1)(c1ccccc1)c1ccccc1)NC(c1ccccc1)(c1ccccc1)c1ccccc1 (stereo not given)', '%', -2.35),
  ('O=[N+]([O-])c1ccc(N2CCCC2)cc1', '%', 0.8),
  ('COc1ccc(C(C)=O)c(O)c1OC', '%', -3.35),
  ('CCOC(=O)Cc1csc(N=Nc2c(O)[nH]c3ccccc23)n1', '%', 7.9),
  ('CC(=O)c1c(O)cccc1O', '%', 8.7),
  ('Cc1[nH]c(=O)[nH]c(=O)c1C', '%', 27.4),
  ('Cc1ccc(C2(C)CC[C@@H]3C[C@@]32C)c(O)c1 (stereo not given in full)', '%', 92.2),
  ('Cc1ccc2c(c1)C=C/C(=C/c1cc[n+](C)c3ccccc13)N2C', '%', -1.05),
  ('C=C(C)C(O)C(O)C(=C)C (stereo not given)', '%', -1.7),
  ('COc1cc(Cc2cc(OC)c(OC)c(OC)c2)ccc1O', '%', -2.6),
  ('N=c1nc2n(cc1F)[C@@H]1O[C@H](CO)[C@@H](O)[C@@H]1O2', '%', 8.55),
  ('Nc1ccccc1SC1CC(=O)N(c2ccc(I)cc2)C1=O (stereo not given)', '%', 13.8),
  ('CC(C)C1(C(C)C)OCC(CO)O1 (stereo not given)', '%', -60.2),
  ('Nc1ccc(F)cc1', '%', -19.6),
  ('C/C(CC(=O)Nc1ccc(Cl)c(Cl)c1)=N/NC(=O)C[n+]1ccccc1', '%', -19.6),
  ('COC(=O)c1c2c(cc3c1CC1(Cc4cc5c(c(C=O)c4C1)CCC5)C3)CCC2 (stereo not given)', '%', 1.55),
  ('CNCCNc1ncc([N+](=O)[O-])s1', '%', -25.1),
  ('CCC(C)NCC/C(=C\[Si](C)(C)C)c1ccccc1 (stereo not given)', '%', 11.7),
  ('Cn1c(=O)c2[nH]c(N(CCO)CCO)nc2n(C)c1=O', '%', 21.9),
  ('CCCCCCCCCCCC(=O)CC(=O)c1c(O)cccc1O', '%', 0.1),
  ('CC(=O)NC1CCCCC1C1CCC([N+](=O)[O-])CC1 (stereo not given)', '%', 12.7),
  ('Nc1cn(Cc2ccccc2)c2nc(/C=C3/C=CC=CC3=O)c(O)n12', '%', -5.45),
  ('O=C(O)c1c2c(nc3ccccc13)CCC2', '%', -14.5),
  ('CCOC(=O)C(=CN(C)c1ccc([N+](=O)[O-])cc1)C(=O)OCC', '%', 12.1),
  ('CCCC(=O)Oc1ccc(CC)cc1', '%', -20.4),
  ('COc1ccccc1NC(=O)NCCCCCCNC(=O)Nc1ccccc1OC', '%', -39.9),
  ('C/C=C/C=C/CC', '%', 16.2);
